Origin of measurements: patent US9988390B2

# System: influenza A virus (A/WSN/33 NanoLuc reporter virus) in A549 cells
# EXPERIMENTAL PROTOCOL: microbe, parasite or virus in culture
# Format: cell-based
# CONDITION INFO: A549, 24 h, read-out: IC50 values of viral replication inhibition in a cell-based Luciferase Reporter Assay (LRA)
Please assign no (0) whenever IC50 is at or above 100 nM, and yes (1) whenever it is below.

Illustrative cases are given below, each with its answer.
>>> group("CN1C[C@H](C2c3ccccc3CCc3ccccc32)n2c(O)nc(=O)c(O)c2C1=O [Example 1a-11]")
"no (0)"
>>> group("CCCCOc1nc(=O)c(O)c2n1[C@@H](C(c1ccccc1)c1ccccc1)CN(C(C)C)C2=O [Example 1a-15]")
"no (0)"

Report whether reported IC50 is lower than 100 nM (strictly) for COc1nc(=O)c(O)c2n1C(C(c1ccccc1)c1ccccc1Br)CN(C)C2=O (centres unmarked) [Ia-70]
yes (1)

Follow-up item: CC(C)N1C[C@H](C2c3ccccc3CCc3ccccc32)n2c(-n3ccnc3)nc(=O)c(O)c2C1=O [Ia-45]
yes (1)

Would you mind doing C=Cc1nc(=O)c(O)c2n1C(C1c3ccccc3CCc3ccccc31)CN(C(C)C)C2=O (centres unmarked) [Ia-47] as well?
yes (1)

Next record, please: CC(C)Nc1nc(=O)c(O)c2n1[C@@H](C(c1ccccc1)c1ccccc1)CN(C(C)C)C2=O [Ia-35]
no (0)

Another compound to check: CC(C)N1C[C@H](C(c2ccccc2)c2ccccc2)n2c([S+](C)[O-])nc(=O)c(O)c2C1=O (some centres unmarked) [Ia-26]
no (0)

Would you mind doing COCCOc1nc(=O)c(O)c2n1[C@@H](C(c1ccccc1)c1ccccc1)CN(C)C2=O [Ia-73] as well?
no (0)

* * *

# Test system: influenza A virus (A/WSN/33 NanoLuc reporter virus) in A549 cells
# EXPERIMENTAL PROTOCOL: microbe, parasite or virus in culture
# Type: cell-based
# CONDITION INFO: A549, 24 h, read-out: IC50 values of viral replication inhibition in a cell-based Luciferase Reporter Assay (LRA)
OBSERVABLE: IC50 (nM)
Give bare numbers, in nM.

Before answering, review these 4 worked examples.
>>> value_measured("COc1nc(=O)c(O)c2n1C(C(c1ccc(Cl)cc1)c1ccc(Cl)cc1)CN(C(C)C)C2=O (centres unmarked)")
302
>>> value_measured("CCc1nc(=O)c(O)c2n1[C@@H](C(c1ccccc1)c1ccccc1)CN(C(C)C)C2=O")
77
>>> value_measured("CC(=O)NCc1nc(=O)c(O)c2n1[C@@H](C(c1ccccc1)c1ccccc1)CN(C(C)C)C2=O")
473
>>> value_measured("COc1nc(=O)c(O)c2n1C(C1c3cccc(F)c3CCc3c(F)cccc31)CN(C(C)C)C2=O (centres unmarked)")
16

What does the record list as IC50 for `CC(C)N1C[C@H](C(c2ccccc2)c2ccccc2)n2c(CO)nc(=O)c(O)c2C1=O` ?
125

* * *

# System: influenza A virus (A/WSN/33 NanoLuc reporter virus) in A549 cells
# EXPERIMENTAL PROTOCOL: microbe, parasite or virus in culture
# Assay type: cell-based
# CONDITION INFO: A549, 24 h, read-out: IC50 values of viral replication inhibition in a cell-based Luciferase Reporter Assay (LRA)
Please provide measured IC50 for the entries that follow.
Numbers only, in nM.

>>> value_measured("CC(C)N1CC(C2c3ccccc3CCc3ccccc32)n2c(S)nc(=O)c(O)c2C1=O (centres unmarked)")
45
>>> value_measured("CSc1nc(=O)c(O)c2n1[C@@H](C(c1ccccc1)c1ccccc1)CN(C(C)C)C2=O")
36
>>> value_measured("CC(C)N1CC(C2c3cccc(F)c3CCc3c(F)cccc32)n2c(O)nc(=O)c(O)c2C1=O (centres unmarked)")
86

Could you tell me IC50 for each of these compounds? They are listed below.
1. CC[S+]([O-])c1nc(=O)c(O)c2n1[C@@H](C(c1ccccc1)c1ccccc1)CN(C(C)C)C2=O (some centres unmarked)
2. CC(C)N1C[C@H](C(c2ccccc2)c2ccccc2)n2c(-n3ccnc3)nc(=O)c(O)c2C1=O
3. COc1nc(=O)c(O)c2n1[C@@H](C(c1ccc(F)cc1)c1ccc(F)cc1)CN(C(C)C)C2=O
4. CCN1CC(C(c2ccccc2)c2ccccc2)n2c(OC)nc(=O)c(O)c2C1=O (centres unmarked)
5. CC(C)N1C[C@H](C(c2ccccc2)c2ccccc2)n2c(NC(C)C(F)(F)F)nc(=O)c(O)c2C1=O (some centres unmarked)
6. CC(C)N1C[C@H](C(c2ccccc2)c2ccccc2)n2c(-c3nnn[nH]3)nc(=O)c(O)c2C1=O
7. CC(C)N1C[C@H](C(c2ccccc2)c2ccccc2)n2c(OCc3ccccc3)nc(=O)c(O)c2C1=O

1. 117
2. 495
3. 47
4. 50
5. 516
6. 20200
7. 8320

Give IC50 for all compounds that follow.
1. CC(C)N1C[C@H](C(c2ccccc2)c2ccccc2)n2c(NCc3ccccc3)nc(=O)c(O)c2C1=O
2. CC(C)N1C[C@H](C2c3ccccc3CCc3ccccc32)n2cnc(=O)c(O)c2C1=O
3. CC(C)N1CC(C2c3ccccc3CCc3ccccc32)n2c(CO)nc(=O)c(O)c2C1=O (centres unmarked)
4. CC(C)N1C[C@H](C(c2ccccc2)c2ccccc2)n2c(C(N)=O)nc(=O)c(O)c2C1=O
5. CNc1nc(=O)c(O)c2n1[C@@H](C(c1ccccc1)c1ccccc1)CN(C(C)C)C2=O

[153, 22, 20, 93, 880]
